All values here come from patent US20100069393A1.

- assayMethodText: Neurotoxicity assay: MTS viability of primary cortical neuronal cultures
- Assay type: cell-based, mouse
- setupConditions: BL6Jx129sv, mouse, primary cortical neuronal cultures, Neuronal cells, test compound 1 uM; read-out: Cytotoxicity (% viable at 1 and 10 uM)
viability at 4 days, 1 uM for assorted compounds
readoutKind: viability at 4 days, 1 uM (%)

[[record]]
recordsmiles = "CCN(CC)Cc1ccc2c(Cl)cc(Cl)c(O)c2n1"
readoutkind = "viability at 4 days, 1 uM"
observedresult = 74

[[record]]
recordsmiles = "CO/N=C/c1ccc2c(Cl)cc(Cl)c(O)c2n1"
readoutkind = "viability at 4 days, 1 uM"
observedresult = 77

[[record]]
recordsmiles = "Oc1c(-c2ccccc2)cc(-c2ccccc2)c2cccnc12"
readoutkind = "viability at 4 days, 1 uM"
observedresult = 97

[[record]]
recordsmiles = "NC(=O)c1ccc2c(Cl)cc(Cl)c(O)c2n1"
readoutkind = "viability at 4 days, 1 uM"
observedresult = 74

[[record]]
recordsmiles = "Cc1nc(Cn2cnc3c(O)c(Cl)cc(Cl)c3c2=O)cs1"
readoutkind = "viability at 4 days, 1 uM"
observedresult = 100

[[record]]
recordsmiles = "Oc1c(I)cc(-c2ccccc2C(F)(F)F)c2cccnc12"
readoutkind = "viability at 4 days, 1 uM"
observedresult = 91

[[record]]
recordsmiles = "Oc1cccc2ccc(CN(CCc3c[nH]cn3)Cc3c[nH]cn3)nc12"
readoutkind = "viability at 4 days, 1 uM"
observedresult = 97

[[record]]
recordsmiles = "Oc1c(I)cc(I)c2cccnc12"
readoutkind = "viability at 4 days, 1 uM"
observedresult = 91

[[record]]
recordsmiles = "O=c1c(-c2ccc(Cl)cc2)cnc2c(O)c(I)ccn12"
readoutkind = "viability at 4 days, 1 uM"
observedresult = 41

